From: patent US20240425479A1

A collection of compounds and their measured IC50
# System: Lck (h) (Homo sapiens, UniProt P06239)
# Sequence (P06239 whole entry): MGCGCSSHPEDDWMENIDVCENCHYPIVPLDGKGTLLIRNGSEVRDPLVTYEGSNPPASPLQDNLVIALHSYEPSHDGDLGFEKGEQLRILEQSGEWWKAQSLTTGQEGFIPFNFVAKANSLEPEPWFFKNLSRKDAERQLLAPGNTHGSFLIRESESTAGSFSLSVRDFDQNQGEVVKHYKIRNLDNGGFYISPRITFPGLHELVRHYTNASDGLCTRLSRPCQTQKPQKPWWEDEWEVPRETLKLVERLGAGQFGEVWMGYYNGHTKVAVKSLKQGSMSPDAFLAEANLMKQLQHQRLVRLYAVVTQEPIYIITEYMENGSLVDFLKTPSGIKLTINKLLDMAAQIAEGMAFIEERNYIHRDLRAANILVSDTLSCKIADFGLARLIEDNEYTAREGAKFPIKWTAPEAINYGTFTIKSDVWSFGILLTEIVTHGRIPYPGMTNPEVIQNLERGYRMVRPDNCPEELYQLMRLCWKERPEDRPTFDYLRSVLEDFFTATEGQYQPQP
# Procedure text: Lck human STE kinase enzymatic radiometric assay
# Type: biochemical
# Condition label: read-out: Lck IC50 nM Range
Where a name gives a salt, the structure may show the parent alone.

>>> endpoint_result("Nc1nc(F)c(-c2ccc(N3CCN(C4CCC4)CC3)cc2)nc1-c1cc2c(cc1F)C(=O)NCC2")
"> 1000 nM"
>>> endpoint_result("CC(C)N1CCN(c2ccc(-c3nc(-c4ccc5c(=O)[nH]ncc5c4)c(N)nc3F)cc2)CC1")
"> 1000 nM"
>>> endpoint_result("Cc1c[nH]c(=O)c2ccc(-c3nc(-c4ccc(C5CCOCC5)c(CN(C)C)c4)c(F)nc3N)cc12")
"> 1000 nM"
>>> endpoint_result("COC1CCN(Cc2cc(-c3nc(-c4ccc5c(c4)CCNC5=O)c(N)nc3F)ccc2N2CCOCC2)C1 (stereo not shown)")
"> 1000 nM"
>>> endpoint_result("Cc1c[nH]c(=O)c2ccc(-c3nc(-c4ccc(N5CCN(C(C)C)CC5)cc4)c(F)nc3N)cc12")
"101 to 1000 nM"
>>> endpoint_result("Nc1nc(F)c(-c2ccc(N3CCN(CC4CC4)CC3)cc2)nc1-c1ccc2c(=O)[nH]ccc2c1")
"> 1000 nM"
>>> endpoint_result("CN(C)Cc1cc(-c2nc(-c3cc4c(cc3F)C(=O)NCC4)c(N)nc2F)ccc1C1CCOCC1")
"> 1000 nM"
>>> endpoint_result("Cc1nc2cc(-c3nc(-c4ccc(C5CCOCC5)c(CN(C)C)c4)c(F)nc3N)ccc2c(=O)[nH]1")
"> 1000 nM"
>>> endpoint_result("Cc1c[nH]c(=O)c2ccc(-c3nc(-c4ccc(N5CCOCC5)c(CN(C)C)c4)c(F)nc3N)cc12")
"> 1000 nM"
>>> endpoint_result("CC(C)N1CCN(c2ccc(-c3nc(-c4ccc5c(=O)[nH]cc(Cl)c5c4)c(N)nc3F)cc2)CC1")
"101 to 1000 nM"

# get_value(readout='IC50', item= CC(C)N1CCN(c2ccc(-c3nc(-c4cc(F)c5c(c4)CCNC5=O)c(N)nc3F)cc2)CC1 )
101 to 1000 nM

Also Nc1nc(F)c(-c2ccc(C3CCN(CC4CC4)CC3)cc2)nc1-c1cc(F)c2c(c1)CCNC2=O [Example I-13, Formate] ?
> 1000 nM

And for CN(C)Cc1cc(-c2nc(-c3cc4c(F)c[nH]c(=O)c4cc3F)c(N)nc2F)ccc1N1CCOCC1 ?
> 1000 nM
